test: Pharmacokinetic evaluation of QC-56 in mouse brain; assay type: in vivo; settings: male, CD-1, mouse, iv; brain tissue, i.v. tail vein injection; read-out: brain concentration at 180 min post-dose
ATTRIBUTE MEASURED: concentration at 180 min (ng/g)
Write it as a number; the unit ng/g goes unstated.

GET /values?readout=concentration at 180 min&item= Brc1ccc(CCC2(Cn3ccnc3)OCCO2)cc1.Cl [QC-56, hydrochloride]
15800

----------
For each record, write down the corresponding melting point.

Need melting point of "Cl.c1ccc(CCC2(Cn3ccnc3)OCCO2)cc1" , thanks.
164 to 165 °C

Return reported melting point; argument: "Cl.FC(F)(F)c1ccc(SC[C@@H]2CO[C@@](CCc3ccc(Cl)cc3)(Cn3ccnc3)O2)nc1"
156 to 157 °C

Need melting point, item "Cl.Clc1ccc(CC[C@@]2(Cn3ccnc3)OC[C@@H](CSc3ccc(Cl)cc3)O2)cc1"
128 to 129 °C

Would you kindly share the measured melting point for "Cl.Clc1ccc(CC[C@@]2(Cn3ccnc3)OC[C@@H](CSc3ccc(Br)cc3)O2)cc1" ?
141 to 142 °C

So what does the record say about melting point for "Cl.Fc1ccc(SC[C@@H]2CO[C@@](CCc3ccc(Cl)cc3)(Cn3ccnc3)O2)cc1" ?
112 to 113 °C

Find the recorded melting point belonging to "Cl.Oc1ccc(OC[C@H]2CO[C@@](CCc3ccc(Cl)cc3)(Cn3ccnc3)O2)cc1" and report it.
128 to 130 °C

# get_value(readout='melting point', item= Cl.Clc1ccc(CC[C@@]2(Cn3ccnc3)OC[C@@H](COc3ccc(I)cc3)O2)cc1 (stereo in doubt) )
113 to 114 °C

Entry Cl.OC(CCc1ccc(F)cc1)Cn1ccnc1 (racemic) has what melting point?
86 to 87 °C

I have this molecule here, "C[C@H]1CO[C@](CCc2ccc(Cl)cc2)(Cn2ccnc2)O1.Cl" , and I need its recorded melting point.
172 to 173 °C

Consider the molecule "Cl.Clc1ccc(CC[C@@]2(Cn3ccnc3)OC[C@@H](CSc3cccc(Br)c3)O2)cc1" and give its measured melting point.
128 to 129 °C

Which value of melting point has been reported for "Cl.Clc1ccc(CC[C@@]2(Cn3ccnc3)OC[C@@H](CSC3CCCCC3)O2)cc1" in the records?
172 to 173 °C

// melting point lookup, key: Cl.Clc1ccc(CC[C@@]2(Cn3ccnc3)OC[C@@H](COc3ccc(Br)cc3)O2)cc1 (stereo in doubt)
55 to 57 °C

Any idea what its melting point is? The molecule is "Cl.Clc1ccc(CC[C@@]2(Cn3ccnc3)OC[C@H](COc3ccc(C45CC6CC(CC(C6)C4)C5)cc3)O2)cc1"
132 to 134 °C

I would be grateful if you could share the reported melting point for "Cl.Fc1ccc(CCC2(Cn3ccnc3)OCCO2)cc1" .
153 to 154 °C

Bench note: what melting point did "COc1ccc(SC[C@@H]2CO[C@@](CCc3ccc(Cl)cc3)(Cn3ccnc3)O2)cc1.Cl" show?
139 to 140 °C

Any idea what melting point was measured for "C[C@@H]1CO[C@](CCc2ccc(Cl)cc2)(Cn2ccnc2)O1.Cl" ?
152 to 153 °C

What value of melting point has been reported for the following molecule? "C[C@H]1CO[C@@](CCc2ccc(Cl)cc2)(Cn2ccnc2)O1.Cl"
148 to 149 °C
